# Tested on: isolated rat bladder strips
# test description: Isolated rat bladder strip contraction
# condition: Rattus norvegicus, read-out: IC50 for inhibition of isolated rat bladder strip contractions, precontracted with 20 mM KCl; area under the contraction curve; n=4
readout name: pIC50
Note on pIC50: it is the negative log10 of concentration, concentration in mol/L.

Req: Respond only with pIC50 recorded for CCOC(=O)Nc1ccc(NCc2ccc(F)cc2)cc1N [retigabine]
Resp: 5.85
